# Tested on: SF-268 CNS
# Experiment description: NCI-60 one-dose screen, 48 h (100 = growth as untreated, 0 = no growth, -100 = all killed)
# Measurement parameters: 10 µM unless noted
About 83,000 compounds went through this panel and 20% of them were active in at least one assay; those are over-represented in the sample as a whole.
Hi! Could you tag entries with growth below 90% as true (1), and those at or above as false (0)? Much appreciated.

[
  {
    "Smiles input": "O=C(/C=C/c1ccc(Cl)cc1)c1cccc(Nc2nc(Nc3ccccc3)nc(Nc3ccccc3)n2)c1",
    "Category label": "false (0)"
  },
  {
    "Smiles input": "N=C(N)c1ccc(-c2ccc(-c3cc(Cl)cc(Cl)c3)o2)o1",
    "Category label": "true (1)"
  },
  {
    "Smiles input": "Fc1ccc(-c2nn(-c3ccccc3)cc2-c2nc3ccccc3o2)cc1",
    "Category label": "true (1)"
  },
  {
    "Smiles input": "Cc1ccc(-c2nc3nc(-c4ccc(F)cc4)nc(N4CCNCC4)c3o2)cc1",
    "Category label": "false (0)"
  },
  {
    "Smiles input": "Cc1ccc(/C=C2\\CN(C(=O)OC(C)(C)C)C/C(=C\\c3ccc(C)cc3)C2=O)cc1",
    "Category label": "true (1)"
  },
  {
    "Smiles input": "COc1ccc(-c2nn(-c3ccccc3)cc2/C=C2/SC(=S)N(C)C2=O)cc1",
    "Category label": "false (0)"
  },
  {
    "Smiles input": "Oc1c(Cl)cc(Cl)c2ccc(Cn3cc(-c4ccc(C(F)(F)F)cc4)nn3)nc12",
    "Category label": "true (1)"
  },
  {
    "Smiles input": "N#Cc1c(N)nnn1Cc1cc(=O)oc2c1ccc1ccccc12",
    "Category label": "false (0)"
  },
  {
    "Smiles input": "O=C(Cn1cc(CN2C(=O)c3ccccc3S2(=O)=O)nn1)Nc1nc2ccccc2s1",
    "Category label": "false (0)"
  }
]

* * *

# System: BT-549 breast
# Experiment description: NCI-60 one-dose screen, 48 h
# Measurement parameters: 10 µM unless noted
# Protocol: Growth inhibition of the BT-549 human tumor cell line is measured as a screen for anti-cancer activity. Cells are grown in 96 well plates and exposed to the test compound for 48 hours. Compounds are tested at a single concentration, which is 10^-5 M for most compounds. The reported endpoint is percent growth (GI% or GIPRCNT), where numbers from 0 - 100% represent growth inhibition, and numbers from -100% - 0 represent cell death. For example, a value of 40 represents 60% growth inhibition. […]
About 83,000 compounds went through this panel and 20% of them were active in at least one assay; those are over-represented in the sample as a whole. Active and inactive are the calls of the source. How the source made its calls: active means growth percent below 10; inactive means the rest.
Outcome codes: active, inactive

[
  {
    "Compound": "C[C@]12C=CC(=O)C=C1CCC1C2[C@@H](O)C[C@@]2(C)C1CC[C@]2(O)C(=O)COC(=O)CCC(=O)O (some centres not stated)",
    "Measured target": "BT-549 breast",
    "Category label": "inactive"
  },
  {
    "Compound": "OCCCC1CCN(C(Cc2ccccc2)c2ccccc2)CC1 (configuration not stated)",
    "Measured target": "BT-549 breast",
    "Category label": "inactive"
  },
  {
    "Compound": "CCSc1nc(NC)c2cc(-c3ccc(C(F)(F)F)cc3)ccc2n1",
    "Measured target": "BT-549 breast",
    "Category label": "inactive"
  },
  {
    "Compound": "CCOC(=O)CSc1ncnc2c1c(-c1ccccc1)c(-c1ccccc1)n2-c1ccc(C)cc1",
    "Measured target": "BT-549 breast",
    "Category label": "inactive"
  },
  {
    "Compound": "Cc1ccc(/C=N/Nc2nc(Nc3ccccc3)nc(-n3nc(C)cc3C)n2)cc1",
    "Measured target": "BT-549 breast",
    "Category label": "active"
  },
  {
    "Compound": "Cc1ccc(-c2nc(N3CCNCC3)c3oc(-c4ccccc4)nc3n2)cc1",
    "Measured target": "BT-549 breast",
    "Category label": "inactive"
  },
  {
    "Compound": "Clc1ccc(CNc2c3ccccc3nc3ccccc23)cc1",
    "Measured target": "BT-549 breast",
    "Category label": "inactive"
  },
  {
    "Compound": "O=C(O)[C@@H]1c2ccccc2-c2ccccc2[C@H]1C(=O)O",
    "Measured target": "BT-549 breast",
    "Category label": "inactive"
  },
  {
    "Compound": "CN(CCOc1ccc(C#N)cc1)CCOc1ccc(C#N)cc1",
    "Measured target": "BT-549 breast",
    "Category label": "inactive"
  },
  {
    "Compound": "CCN(CC)CCOc1ccc(-c2c(-c3ccccc3)c(=O)oc3ccccc23)cc1",
    "Measured target": "BT-549 breast",
    "Category label": "inactive"
  },
  {
    "Compound": "COc1cc(OC)c2sc(-c3ccc(-n4cncc4-c4ccc(OC)c(OC)c4)cc3)nc2c1",
    "Measured target": "BT-549 breast",
    "Category label": "inactive"
  },
  {
    "Compound": "Brc1ccc(-n2cc(-c3nn[nH]n3)c(-c3cccs3)n2)cc1",
    "Measured target": "BT-549 breast",
    "Category label": "inactive"
  },
  {
    "Compound": "Brc1ccc2[nH]cc(-c3nonc3-c3c[nH]c4ccccc34)c2c1",
    "Measured target": "BT-549 breast",
    "Category label": "inactive"
  },
  {
    "Compound": "CC(C)(C)[Si](C)(C)O[C@H]1C(=O)C=CN2CC=C[C@@H]12",
    "Measured target": "BT-549 breast",
    "Category label": "inactive"
  },
  {
    "Compound": "COC(=O)/C(CCC=C(C)C)=C1\\[C@@H](OC(C)=O)C[C@@]2(C)[C@H]1C[C@@H](O)[C@H]1[C@@]3(C)CC[C@H](NCCN)[C@@H](C)[C@@H]3CC[C@@]12C",
    "Measured target": "BT-549 breast",
    "Category label": "inactive"
  },
  {
    "Compound": "COC(=O)c1ccc2c(c1)C(=O)c1c-2n(CCCN)c(=O)c2cc([N+](=O)[O-])ccc12",
    "Measured target": "BT-549 breast",
    "Category label": "active"
  },
  {
    "Compound": "N#Cc1c(-c2ccc(Cl)cc2)nc(SCC(=O)NC2=NN=C(c3ccccc3)CS2)[nH]c1=O",
    "Measured target": "BT-549 breast",
    "Category label": "inactive"
  },
  {
    "Compound": "Cc1ccc(-c2csc(NC(=O)CN3CCN(c4cc5c(cc4F)c(=O)c(C(=O)O)cn5C4CC4)CC3)n2)cc1",
    "Measured target": "BT-549 breast",
    "Category label": "inactive"
  },
  {
    "Compound": "C=C1C(=O)O[C@H]2[C@H]1CC/C(COC(=O)NCc1cc[nH]c1)=C\\CC[C@@]1(C)O[C@@H]21",
    "Measured target": "BT-549 breast",
    "Category label": "inactive"
  },
  {
    "Compound": "Cc1cc(=O)[nH]c2c(C#N)cnn12",
    "Measured target": "BT-549 breast",
    "Category label": "inactive"
  },
  {
    "Compound": "O=C(c1ccc(-c2nc(CSc3nc4ccccc4s3)no2)cc1)N1CCSCC1",
    "Measured target": "BT-549 breast",
    "Category label": "inactive"
  },
  {
    "Compound": "CC(C)CCC[C@@H](C)[C@H]1CC[C@H]2[C@@H]3CC=C4C[C@@H](C(C(=O)O)C(=O)O)CC[C@]4(C)[C@H]3CC[C@]12C",
    "Measured target": "BT-549 breast",
    "Category label": "active"
  },
  {
    "Compound": "C=CCn1c(SCC(=O)Nc2ccc(C(=O)/C=C/c3cc4cc(OC)ccc4nc3Cl)cc2)nnc1-c1ccc(Br)cc1",
    "Measured target": "BT-549 breast",
    "Category label": "inactive"
  },
  {
    "Compound": "CCOC(=O)C1=C(NC)OCC1=O",
    "Measured target": "BT-549 breast",
    "Category label": "inactive"
  },
  {
    "Compound": "COc1ccc(C(c2cc(OC)c(OC)c(OC)c2)N2CCN(c3ccccc3)CC2)cc1 (configuration not stated)",
    "Measured target": "BT-549 breast",
    "Category label": "inactive"
  },
  {
    "Compound": "O=C1c2cccc3cccc(c23)C(=O)N1N1C(=O)c2cccc3c(N4CCOCC4)ccc(c23)C1=O",
    "Measured target": "BT-549 breast",
    "Category label": "inactive"
  },
  {
    "Compound": "C#Cc1cccc(Nc2ncnc3ccc(-c4cncc(NS(C)(=O)=O)c4)cc23)c1",
    "Measured target": "BT-549 breast",
    "Category label": "inactive"
  },
  {
    "Compound": "CC1(C)CC2=C3C=C[C@@H]4[C@@]5(C)CCC(=O)C(C)(C)[C@@H]5CC[C@@]4(C)[C@]3(C)CC[C@@]2(C(=O)O)CC1=O",
    "Measured target": "BT-549 breast",
    "Category label": "inactive"
  },
  {
    "Compound": "Cc1nnc(NC(=O)c2nc(S(=O)(=O)Cc3ccc(F)cc3)ncc2Cl)s1",
    "Measured target": "BT-549 breast",
    "Category label": "inactive"
  },
  {
    "Compound": "C=C(CNCCc1ccc(O)cc1)[C@@H]1CC[C@]2(CO)CC[C@]3(C)[C@H](CC[C@@H]4[C@@]5(C)CCC(NCCO)C(C)(C)[C@@H]5CC[C@]43C)[C@@H]12 (some centres not stated)",
    "Measured target": "BT-549 breast",
    "Category label": "active"
  },
  {
    "Compound": "CCOC(=O)C(=Cc1cccc(Cl)c1)C(=O)OCC",
    "Measured target": "BT-549 breast",
    "Category label": "inactive"
  },
  {
    "Compound": "Nc1c(C(=O)Nc2ccncc2)sc2nc3c(cc12)CCCCCC3",
    "Measured target": "BT-549 breast",
    "Category label": "inactive"
  },
  {
    "Compound": "CN(Cc1ccc(C(F)(F)F)cc1)CC(O)C(=O)Nc1ccc(Cl)cc1 (configuration not stated)",
    "Measured target": "BT-549 breast",
    "Category label": "inactive"
  },
  {
    "Compound": "COc1ccc(OC)c(-c2c(C#N)c(-c3cccs3)nc3c2c(-c2ccccc2)nn3-c2ccccc2)c1",
    "Measured target": "BT-549 breast",
    "Category label": "inactive"
  },
  {
    "Compound": "CCn1c(=S)sc2c(Nc3ccc(F)cc3)nc(-c3cccnc3)nc21",
    "Measured target": "BT-549 breast",
    "Category label": "inactive"
  },
  {
    "Compound": "C=CCn1c(SCC(=O)NCc2cc(C)c(O)c(C)c2)nc2ccc(Cl)cc2c1=O",
    "Measured target": "BT-549 breast",
    "Category label": "inactive"
  },
  {
    "Compound": "COc1ccc(/C(C)=C(/c2ccc(OCCCN(C)C)cc2)c2ccc(OC(=O)Cc3ccccc3)cc2)cc1",
    "Measured target": "BT-549 breast",
    "Category label": "inactive"
  }
]
